This collection of values is drawn from patent US20060235076A1.

# Test system: MRSA and MSSA
# experiment: Antibacterial activity of gallic acid, various gallates and multivalent phenol derivatives alone (agar plate dilution method, MIC)
# Assay type: cell-based, Staphylococcus aureus
# condition set: Staphylococcus aureus, MRSA #17; compound alone; read-out: MIC

# compound, measurement unit, sign, MIC
records = [
    ("CCCCCCCCCCCOC(=O)c1cc(O)c(O)c(O)c1 [Undecyl gallate, n-undecyl gallate]", "µg/mL", "=", 31.3),
    ("CC(C)CCOC(=O)c1ccc(O)cc1 [Isoamyl 4-hydroxybenzoate]", "µg/mL", "=", 62.5),
    ("CC(C)CCOC(=O)c1cc(O)c(O)c(O)c1 [isoAmyl gallate, Isoamyl gallate]", "µg/mL", "=", 62.5),
    ("CCCCCOC(=O)c1ccc(O)cc1 [n-Amyl 4-hydroxybenzoate]", "µg/mL", "=", 62.5),
    ("CCCC(=O)c1cc(O)c(O)cc1O [2′,4′,5′-trihydroxybutyrophenone]", "µg/mL", "=", 125),
    ("CCCCCCCCCCCCCCCCOC(=O)c1cc(O)c(O)c(O)c1 [Cetyl gallate]", "µg/mL", ">", 250),
    ("CCCCCCCCCCCCOC(=O)c1cc(O)c(O)c(O)c1 [Lauryl gallate, n-lauryl gallate]", "µg/mL", "=", 62.5),
    ("CC(C)COC(=O)c1cc(O)c(O)c(O)c1 [isoButyl gallate, isobutyl gallate]", "µg/mL", "=", 125),
    ("CC(=O)c1ccc(O)c(O)c1O [2′,3′,4′-trihydroxyacetophenone]", "µg/mL", "=", 62.5),
]
